Exercise: state measured IC50 for each of the compounds provided.
target_entity: Nucleotide-binding oligomerization domain-containing protein 1 (Homo sapiens)
Sequence (Q9Y239 whole entry): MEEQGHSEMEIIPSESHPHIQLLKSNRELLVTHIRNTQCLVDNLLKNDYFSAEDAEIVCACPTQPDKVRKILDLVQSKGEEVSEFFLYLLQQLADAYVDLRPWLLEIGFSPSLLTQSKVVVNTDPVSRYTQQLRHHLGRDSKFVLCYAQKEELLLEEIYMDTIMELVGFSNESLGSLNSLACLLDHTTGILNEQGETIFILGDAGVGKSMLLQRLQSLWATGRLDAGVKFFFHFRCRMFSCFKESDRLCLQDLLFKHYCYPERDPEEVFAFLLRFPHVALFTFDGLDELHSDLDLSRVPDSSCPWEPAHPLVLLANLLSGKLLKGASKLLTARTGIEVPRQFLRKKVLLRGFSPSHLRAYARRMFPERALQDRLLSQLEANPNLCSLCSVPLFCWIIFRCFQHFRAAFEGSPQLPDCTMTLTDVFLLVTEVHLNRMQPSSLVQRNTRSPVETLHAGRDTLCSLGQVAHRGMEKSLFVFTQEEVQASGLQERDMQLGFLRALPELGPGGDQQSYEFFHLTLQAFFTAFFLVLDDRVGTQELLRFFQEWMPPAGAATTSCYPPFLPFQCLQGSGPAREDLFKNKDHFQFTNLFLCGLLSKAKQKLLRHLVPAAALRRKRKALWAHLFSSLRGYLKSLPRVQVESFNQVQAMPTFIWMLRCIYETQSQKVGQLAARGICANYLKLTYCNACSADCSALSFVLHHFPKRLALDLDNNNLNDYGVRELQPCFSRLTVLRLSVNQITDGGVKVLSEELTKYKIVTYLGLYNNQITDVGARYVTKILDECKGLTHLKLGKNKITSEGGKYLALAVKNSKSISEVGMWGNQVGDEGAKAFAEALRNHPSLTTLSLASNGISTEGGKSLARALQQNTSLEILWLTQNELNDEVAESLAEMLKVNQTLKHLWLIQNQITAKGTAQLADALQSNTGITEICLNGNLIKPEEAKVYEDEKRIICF
Numbers only, in µM.

Cc1ccc(S(=O)(=O)n2c(NC3CCCCC3)c(N3CCN(C)CC3)c3ccccc32)cc1	18.5

Each compound below has a reported value. Please supply its IC50.
1. CCCCCNc1c(N2CCOCC2)c2ccccc2n1S(=O)(=O)c1ccc([N+](=O)[O-])cc1
2. Cc1ccc(S(=O)(=O)n2c(NCc3ccccc3)c(N3CCN(C)CC3)c3cc4ccccc4cc32)cc1

OUTPUT:
1. 26.1
2. 20.7

----------
target_entity: Nucleotide-binding oligomerization domain-containing protein 2 (Homo sapiens, UniProt Q9HC29)
Sequence (Q9HC29 whole entry, the tested form may be a part): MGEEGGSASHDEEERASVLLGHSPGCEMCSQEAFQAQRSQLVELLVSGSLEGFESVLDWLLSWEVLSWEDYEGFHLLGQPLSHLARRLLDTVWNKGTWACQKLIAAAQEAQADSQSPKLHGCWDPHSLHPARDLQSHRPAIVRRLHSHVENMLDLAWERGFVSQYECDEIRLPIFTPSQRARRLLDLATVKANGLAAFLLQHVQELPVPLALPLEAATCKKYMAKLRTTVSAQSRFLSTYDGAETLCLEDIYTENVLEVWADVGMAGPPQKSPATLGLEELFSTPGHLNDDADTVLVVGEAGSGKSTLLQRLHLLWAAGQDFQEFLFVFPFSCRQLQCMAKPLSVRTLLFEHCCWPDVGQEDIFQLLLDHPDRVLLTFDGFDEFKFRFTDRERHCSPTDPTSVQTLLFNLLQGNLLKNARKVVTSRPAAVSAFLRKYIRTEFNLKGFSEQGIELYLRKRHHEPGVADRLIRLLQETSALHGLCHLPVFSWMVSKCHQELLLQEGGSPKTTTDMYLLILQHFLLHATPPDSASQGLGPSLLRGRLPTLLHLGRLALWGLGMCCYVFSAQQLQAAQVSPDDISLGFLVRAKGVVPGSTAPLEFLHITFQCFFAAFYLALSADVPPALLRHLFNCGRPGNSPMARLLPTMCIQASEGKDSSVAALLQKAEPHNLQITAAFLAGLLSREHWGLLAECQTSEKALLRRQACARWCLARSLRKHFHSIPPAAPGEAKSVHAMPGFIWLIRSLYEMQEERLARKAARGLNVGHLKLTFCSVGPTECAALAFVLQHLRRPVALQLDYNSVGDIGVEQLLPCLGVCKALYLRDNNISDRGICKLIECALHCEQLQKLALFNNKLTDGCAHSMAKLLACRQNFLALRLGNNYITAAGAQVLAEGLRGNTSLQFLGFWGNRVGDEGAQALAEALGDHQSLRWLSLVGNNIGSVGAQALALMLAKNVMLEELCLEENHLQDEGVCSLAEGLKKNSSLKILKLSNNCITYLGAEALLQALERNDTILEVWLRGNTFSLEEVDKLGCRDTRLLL
experimental_readout: IC50

INPUT: I have this molecule here, CCCCCn1c(SCCc2ccccc2)nc2[nH]c(=O)[nH]c(=O)c21 , and I need its recorded IC50.
OUTPUT: > 20 µM
